- Tested target: Histone-lysine N-methyltransferase EHMT2 (Homo sapiens)
- Assay details: qHTS Assay for Inhibitors of Histone Lysine Methyltransferase G9a; note: nearly all actives have a fitted effect of over 75% in size; note: potency is the fitted concentration of half-maximal effect
- Measurement parameters: G9a H3K9 monomethylation, AlphaScreen, 2 h; series mostly up to 59 µM
Out of some 350,000 compounds screened, about 31,000 (8.9%) were called active. Another 15% or so got no clear call; they are omitted. This is one part of a sample in which actives are shown more often than they occur.
Experimental endpoint: Potency

Here are 8 compounds together with their reported answers.
C/C(=N\Nc1ncc(Cl)cc1Cl)c1cccs1	inactive
COc1ccc(Cl)cc1-n1c(=S)sc2c(=O)n(-c3ccc(F)cc3)c(SCC(=O)O)nc21	28.2 µM (active)
O=C1/C(=C\c2ccsc2)NC(=S)N1c1ccccc1	50.1 µM (active)
Cc1nn(-c2ccc(N3CCCCC3)nn2)c(C)c1CCC(=O)NCc1ccccc1F	inactive
COc1ccc(CNC(=O)COCc2cc(-c3cccs3)on2)cc1OC	inactive
CN(C1CCS(=O)(=O)C1)S(=O)(=O)c1ccc2ccccc2c1 (stereo not given)	inactive
OC(COc1ccc2ccccc2c1)CN1CCOCC1 (stereo not given)	inactive
Cc1ccc(CC2(O)CCN(CCOc3ccc(O)cc3)CC2)cc1	inactive

# input Given CCCNC(=O)CCC(=O)N1Cc2ccccc2Oc2ncccc21 , state its recorded Potency.
# output inactive

# input // query: O=C(CCCCCn1c(=S)[nH]c2ccsc2c1=O)NC1CCCCC1
# output 10 µM (active)

# input // query: C/C(=N\NC(=O)COc1c(C)cccc1C)c1cccs1
# output inactive

# input // query: CCN1CCC(N(Cc2ccc(F)cc2)C(=O)Nc2cc(C)ccc2C)CC1
# output inactive

# input // query: Cc1ccc(NNC(=O)C2CCC2)cc1C
# output 11.2 µM (active)

# input // query: COc1ccccc1NC(=O)c1ccc(N2CC3CC(C2)c2cccc(=O)n2C3)c(NC(=O)c2cccnc2)c1 (stereo not given)
# output 15.8 µM (active)

# input // query: Cc1ccc(-n2nc(CO)c(C(=O)NCCc3ccccc3)n2)cc1
# output inactive

# input // query: CCCCC(CC)CNC(=O)CCCCn1c(=O)[nH]c2ccsc2c1=O (stereo not given)
# output inactive

# input // query: Clc1ccccc1-c1cc(COc2ccc3ccccc3c2)no1
# output inactive

# input // query: COc1ccccc1N1CCN(S(=O)(=O)CCNC(=O)COc2ccc(F)cc2)CC1
# output inactive

* * *

- Tested target: Histone-lysine N-methyltransferase EHMT2 (Homo sapiens) (UniProt Q96KQ7)
- Sequence (Q96KQ7 913-1193 limits assumed): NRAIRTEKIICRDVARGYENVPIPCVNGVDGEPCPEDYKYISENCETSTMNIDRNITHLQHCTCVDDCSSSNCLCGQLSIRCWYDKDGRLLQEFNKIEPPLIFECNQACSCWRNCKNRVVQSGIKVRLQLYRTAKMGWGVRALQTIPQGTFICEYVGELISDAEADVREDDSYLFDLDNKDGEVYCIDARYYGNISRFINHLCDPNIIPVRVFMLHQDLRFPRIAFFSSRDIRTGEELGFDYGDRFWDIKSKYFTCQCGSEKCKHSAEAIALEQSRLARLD
- Assay details: qHTS Assay for Inhibitors of Histone Lysine Methyltransferase G9a; note: nearly all actives have a fitted effect of over 75% in size
- Measurement parameters: G9a H3K9 monomethylation, AlphaScreen, 2 h; series mostly up to 59 µM
Out of some 350,000 compounds screened, about 31,000 (8.9%) were called active. About 15% were inconclusive and are not listed. Calls come from the whole dose curve; as a rule, active = well fitted inhibition curve with a large enough effect; inconclusive = small, poorly fitted or top-dose-only effect; inactive = no such curve, though single readings can be large or run the other way. Only a selection was taken, and actives are over-represented in it overall.
Please state which outcome applies, choosing from active, inactive

# input Answer briefly: the call reported for COc1ccccc1CCC(=O)OCC(=O)N1CCN(S(=O)(=O)c2ccc(C)cc2C)CC1 in this assay.
# output inactive

# input // query: COc1ccccc1NC(=O)C(C)OC(=O)c1ccc(-n2cnnn2)cc1 (stereo not drawn)
# output inactive

# input // query: O=C(NC(=O)c1ccccc1)NC(=O)c1ccccc1
# output inactive

# input // query: COc1ccc(CCNC(=O)Cn2c(=O)cc(C(F)(F)F)c3c(C)nn(C)c32)c(OC)c1
# output inactive

# input // query: Cc1nc2ccc(C(=O)N/N=C/c3ccc(O)cc3)cc2[nH]1
# output active

# input // query: Cc1ccc(S(=O)(=O)NCCC(=O)NCc2ccc(Cl)cc2)cc1C
# output inactive

# input // query: CCc1ccc(NC(=O)c2cc(S(=O)(=O)NC3CCCCCC3)ccc2F)cc1
# output inactive

# input // query: CC1=C(C(=O)OCc2ccc(C)cc2)C(c2c(Cl)cccc2Cl)CC(=O)N1 (stereo not drawn)
# output inactive

# input // query: Cc1cc2[nH]ncc2cc1NC(=S)NC(=O)c1ccccc1
# output inactive

# input // query: O=C(Oc1ccc(F)cc1)N1CCOCC1
# output inactive

# input // query: CCOC(=O)C1=C(CCc2ccccc2)NC(=O)NC1c1ccc2ccccc2c1 (stereo not drawn)
# output inactive

# input // query: Cc1ccc2nc(CNC(=O)c3ccccc3)[nH]c2c1
# output inactive

# input // query: Cc1ccc(-c2nn(CCC(=O)Nc3ccc(OC(F)(F)F)cc3)c(=O)c3ccccc23)cc1
# output inactive

# input // query: O=c1[nH]c(-c2cccs2)nc2ccccc12
# output inactive

# input // query: S=c1[nH]c(-c2cccs2)cn1-c1ccccc1
# output active

# input // query: CCC(=O)N1N=C(c2ccc(OC)cc2)CC1c1cn(-c2ccccc2)nc1-c1cccs1 (stereo not drawn)
# output inactive

# input // query: O=C(O)/C=C/c1cn(-c2ccccc2)nc1-c1cccs1
# output inactive

# input // query: COc1ccc(-c2csc(-c3c(N)c(C(=O)c4ccc(OC)c(OC)c4)n4ccccc34)n2)cc1
# output inactive

# input // query: Cc1ccc(-n2c(SCC(=O)N3c4ccccc4Sc4ccccc43)nnc2-c2ccncc2)cc1
# output inactive

# input // query: Cn1nnc(NC(=S)NC(=O)c2ccccc2)n1
# output active

# input // query: Cc1nonc1C(=O)N/N=C/c1ccc(O)cc1
# output inactive

# input // query: Cc1ccccc1-n1c(SCC(=O)NCc2cccs2)nnc1-c1ccncc1
# output inactive

# input // query: CCCN1CCN(C(=O)CCCNC(=O)c2ccc(Cl)cc2)CC1
# output inactive

* * *

- Tested target: Histone-lysine N-methyltransferase EHMT2 (Homo sapiens)
- Assay details: qHTS Assay for Inhibitors of Histone Lysine Methyltransferase G9a; note: nearly all actives have a fitted effect of over 75% in size; note: potency is the fitted concentration of half-maximal effect
- Measurement parameters: G9a H3K9 monomethylation, AlphaScreen, 2 h; series mostly up to 59 µM
In all, about 350,000 compounds went through this assay and about 31,000 (8.9%) were called active. Inconclusive results (about 15%) are left out. Only a selection was taken, and actives are over-represented in it overall.
Experimental endpoint: Potency

CC1CCCCN1Cc1c(O)ccc2c(=O)c(-c3cccc(Cl)c3)c(C(F)(F)F)oc12 (centres undefined)	inactive
O=c1cc(CN2CCN(S(=O)(=O)/C=C/c3ccccc3)CC2)c2ccc(O)cc2o1	inactive
CCC(C(=O)Nc1cccc(Cl)c1C)n1nc(-c2ccc(C)cc2)ccc1=O (centres undefined)	inactive
O=C(c1c(F)cccc1Cl)N1CCN(S(=O)(=O)c2ccc3c(c2)OCCCO3)CC1	inactive
CN(C)S(=O)(=O)c1ccc(NC(=O)COC(=O)Cn2[nH]c(=O)c3ccccc3c2=O)cc1	inactive
O=C1C(c2[nH]c3ccccc3c2O)=Nc2ccccc21	5.01 µM (active)
Cc1oc(-c2ccccc2)nc1Cn1c(SCc2cccc(C(F)(F)F)c2)nc2cccnc21	inactive
O=C(CN1CCN(c2ccccc2)CC1)Nc1ccc(F)cc1	inactive
COc1ccccc1CNC(=O)CCCN1C(=O)NC2(CCCC2)C1=O	inactive
Cc1ccc(NC(=O)CCCNC(=O)c2ccc(Cl)cc2)cc1S(=O)(=O)N1CCCCC1	inactive

# input Given CCc1cc(=O)oc2c(C)c(OCC(=O)NCCN3CCOCC3)ccc12 , state its recorded Potency.
# output inactive

# input // query: CCc1cc2cc(OC)ccc2nc1SCC(=O)Nc1cc(OC)c(OC)cc1C(=O)O
# output 50.1 µM (active)

# input // query: Cn1c(SCC(=O)Nc2nccs2)nnc1-c1cccnc1
# output inactive

# input // query: CCOC(=O)CSc1nnc(-c2ccco2)n1C
# output inactive

# input // query: COCCNC(=O)/C(C#N)=C/c1cccc(OCc2ccccc2)c1
# output inactive

* * *

- Tested target: Histone-lysine N-methyltransferase EHMT2 (Homo sapiens) (UniProt Q96KQ7)
- Assay details: qHTS Assay for Inhibitors of Histone Lysine Methyltransferase G9a; note: nearly all actives have a fitted effect of over 75% in size; note: potency is the fitted concentration of half-maximal effect
- Measurement parameters: G9a H3K9 monomethylation, AlphaScreen, 2 h; series mostly up to 59 µM
Out of some 350,000 compounds screened, about 31,000 (8.9%) were called active. Inconclusive results (about 15%) are left out. For the sample, actives were picked, then their nearest neighbours and some compounds at random.
Experimental endpoint: Potency

Here are 4 molecules together with their reported answers.
S=c1[nH]nc(-c2ccc(Cl)cc2)n1CC1CCCO1 (stereo not given)	7.94 µM (active)
COCCn1c(SC(C)C(=O)NC2CC2)nnc1-c1cccc(C)c1 (stereo not given)	28.2 µM (active)
CCc1nc2c(cnn2-c2ccc(C)cc2)c(=O)n1-c1ccc(C)cc1	inactive
O=C(Nc1cc(C(F)(F)F)ccc1Cl)c1nc2ccccc2nc1N1CCCCC1	inactive

Next, consider the following molecule.
# input Given COc1ccc(-c2c(C)nn3c(N4CCC(C(=O)NCCC(C)C)CC4)cc(C)nc23)cc1OC , state its recorded Potency.
# output inactive

* * *

- Tested target: Histone-lysine N-methyltransferase EHMT2 (Homo sapiens) (UniProt Q96KQ7)
- Assay details: qHTS Assay for Inhibitors of Histone Lysine Methyltransferase G9a; note: nearly all actives have a fitted effect of over 75% in size; note: potency is the fitted concentration of half-maximal effect
- Measurement parameters: G9a H3K9 monomethylation, AlphaScreen, 2 h; series mostly up to 59 µM
The campaign covered roughly 350,000 compounds. About 31,000 (8.9%) were called active. Another 15% or so got no clear call; they are omitted. The full list was thinned out, with actives kept by preference.
Experimental endpoint: Potency

Here are 5 molecules together with their reported answers.
COc1ccc(C(=O)NC2CCN(C(=O)Nc3ccc(F)cc3)CC2)cc1	inactive
O=C(CNC(=O)COc1ccccc1)NCCc1ccccn1	inactive
COC(=O)C1=C(C)NC(=O)/C1=C/c1ccc(CNS(=O)(=O)c2ccc(C)cc2)o1	50.1 µM (active)
COc1cc(CCC(=O)N2CCN(c3ccccc3Cl)CC2)cc(OC)c1OC	inactive
CCOc1ccc(NC(=O)Cn2c(C)ccc(C#N)c2=O)cc1	inactive

# input Given the entry COc1ccccc1CNS(=O)(=O)c1ccc(C)cc1 , what Potency was observed with Histone-lysine N-methyltransferase EHMT2 (Homo sapiens) (UniProt Q96KQ7)?
# output inactive

# input // query: Cc1ccc(CCNC(=O)c2ccc(CNS(=O)(=O)c3ccc(C)cc3)cc2)cc1
# output inactive

# input // query: COc1cccc(CNC(=O)Cn2c(=O)c3cccn3c3ccc(F)cc32)c1OC
# output inactive

# input // query: CCCCC(CC)CNC(=O)C(=O)C1C(=O)Nc2ccccc21 (stereo unspecified)
# output 44.7 µM (active)

# input // query: COc1ccc(NCCc2ccccn2)cc1
# output 39.8 µM (active)

# input // query: CCC1CCCCN1S(=O)(=O)c1ccc(NC(=O)c2cc(=O)c3ccccc3o2)cc1 (stereo unspecified)
# output inactive
